systemTested: T1, recombinant human IL-12 (rhIL-12) (human, UniProt P29459 23-219; P29460 23-328)
T1 construct: disulfide-linked p35/p40 heterodimer (p70); also called IL-12 p70; rec. human IL12
T1 sequence (looked up) 1: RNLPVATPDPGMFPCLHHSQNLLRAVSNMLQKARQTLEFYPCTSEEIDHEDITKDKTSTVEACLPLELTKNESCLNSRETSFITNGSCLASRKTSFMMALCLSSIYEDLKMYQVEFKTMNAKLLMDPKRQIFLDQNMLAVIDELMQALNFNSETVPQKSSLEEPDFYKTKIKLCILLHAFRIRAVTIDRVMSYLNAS
T1 sequence (looked up) 2: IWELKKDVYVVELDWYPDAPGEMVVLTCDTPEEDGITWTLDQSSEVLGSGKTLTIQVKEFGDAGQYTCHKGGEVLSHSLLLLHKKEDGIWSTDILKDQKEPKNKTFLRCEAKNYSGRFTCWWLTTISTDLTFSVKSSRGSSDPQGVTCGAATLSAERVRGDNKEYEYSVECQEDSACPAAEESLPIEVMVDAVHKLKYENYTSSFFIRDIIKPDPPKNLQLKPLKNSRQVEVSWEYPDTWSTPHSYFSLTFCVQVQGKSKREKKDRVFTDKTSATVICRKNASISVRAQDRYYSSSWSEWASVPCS
testDescription: receptor binding assay, 125I-hIL-12 on PHA blasts
pIC50: −log10 of the molar value.
Mark -1 for pIC50 values under 10, and 1 for everything at or above.

>>> labelvalue("AO3 IgG1 (antibody, V domains shown, IgG1) VH: QVQLVQSGGGVVQPGRSLRLSCAASGFTFSSYGMHWVRQAPGKGLEWVAFIRYDGSNKYYADSVKGRFTISRDNSKNTLYLQMKSLRAEDTAVYYCKTHGSHDNWGQGTMVTVSS VL: SYVLTQPPSVSGTPGQRVTISCSGGRSNIGSNTVKWYQQLPGTAPKLLIYGNDQRPSGVPDRFSGSKSGTSASLAITGVQAEDEADYYCQSYDRGTHPLTMFGTGTKVTVLG")
1
>>> labelvalue("A4 (scFv, V domains shown, scFv clone) VH: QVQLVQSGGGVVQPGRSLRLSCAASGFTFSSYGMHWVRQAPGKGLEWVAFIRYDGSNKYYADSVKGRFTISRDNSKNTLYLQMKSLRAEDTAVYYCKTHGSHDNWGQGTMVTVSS VL: SYVLTQPPSVSGTPGQRVTISCSGGRSNIGSNTVKWYQQLPGTAPKLLIYGNDQRPSGVPDRFSGSKSGTSASLAITGVQAEDEADYYCQSYDRGRNPALTFGTGTKVTVL")
-1
>>> labelvalue("Y61 IgG (antibody, V domains shown, whole IgG1; also called Y61-IgG1) VH: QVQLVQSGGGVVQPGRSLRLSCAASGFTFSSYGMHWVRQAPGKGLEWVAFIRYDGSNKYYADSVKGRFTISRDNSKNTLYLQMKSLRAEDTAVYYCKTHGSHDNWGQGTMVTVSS VL: SYVLTQPPSVSGTPGQRVTISCSGGRSWIGSNTVKWYQQLPGTAPKLLIYGNDQRPSGVPDRFSGSKSGTSASLAITGVQAEDEADYYCQSYDRGTHPALLFGTGTKVTVLG")
1
>>> labelvalue("Y61 (scFv, V domains shown, also called Y61 scFv; clone Y61; not shown: scFv linker and any tags) VH: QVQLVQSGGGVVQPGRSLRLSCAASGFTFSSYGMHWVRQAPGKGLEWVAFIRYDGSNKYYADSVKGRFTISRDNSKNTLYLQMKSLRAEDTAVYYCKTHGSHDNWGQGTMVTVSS VL: SYVLTQPPSVSGTPGQRVTISCSGGRSNIGSNTVKWYQQLPGTAPKLLIYGNDQRPSGVPDRFSGSKSGTSASLAITGVQAEDEADYYCQSYDRGTHPALLFGTGTKVTVL")
1
>>> labelvalue("Y61-L94Y (scFv, V domains shown) VH: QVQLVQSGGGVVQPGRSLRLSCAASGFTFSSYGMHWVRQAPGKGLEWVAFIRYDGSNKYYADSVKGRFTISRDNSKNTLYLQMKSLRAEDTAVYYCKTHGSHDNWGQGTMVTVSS VL: QSVLTQPPSVSGAPGQRVTISCSGSRSNIGSNTVKWYQQLPGTAPKLLIYGNDQRPSGVPDRFSGSKSGTSASLAITGLQAEDEADYYCQSYDRYTHPALLFGTGTKVTVL")
1
